Molecular target: 5-HT2A receptor (Rattus norvegicus)
Sequence (P14842 whole entry): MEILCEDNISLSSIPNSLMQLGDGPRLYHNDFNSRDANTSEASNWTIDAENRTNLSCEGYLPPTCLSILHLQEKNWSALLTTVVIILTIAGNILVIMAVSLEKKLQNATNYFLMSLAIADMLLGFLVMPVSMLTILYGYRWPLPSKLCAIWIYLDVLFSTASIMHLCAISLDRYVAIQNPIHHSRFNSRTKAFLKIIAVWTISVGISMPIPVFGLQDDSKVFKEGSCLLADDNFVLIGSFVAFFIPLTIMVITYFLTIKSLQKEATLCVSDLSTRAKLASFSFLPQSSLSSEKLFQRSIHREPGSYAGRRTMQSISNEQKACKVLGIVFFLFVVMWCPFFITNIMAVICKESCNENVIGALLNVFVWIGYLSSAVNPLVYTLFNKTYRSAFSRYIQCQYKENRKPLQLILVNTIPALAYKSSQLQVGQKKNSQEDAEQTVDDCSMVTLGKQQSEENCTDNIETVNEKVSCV
pIC50: −log10 of the molar value.

| smilesRepr | pIC50 |
| --- | --- |
| O=C(c1nccc2ccccc12)N1CCN(CCc2ccc(F)cc2)CC1 | 9.00 |

* * *

Target: 5-HT1D receptor (Homo sapiens)
Sequence (P28221 whole entry): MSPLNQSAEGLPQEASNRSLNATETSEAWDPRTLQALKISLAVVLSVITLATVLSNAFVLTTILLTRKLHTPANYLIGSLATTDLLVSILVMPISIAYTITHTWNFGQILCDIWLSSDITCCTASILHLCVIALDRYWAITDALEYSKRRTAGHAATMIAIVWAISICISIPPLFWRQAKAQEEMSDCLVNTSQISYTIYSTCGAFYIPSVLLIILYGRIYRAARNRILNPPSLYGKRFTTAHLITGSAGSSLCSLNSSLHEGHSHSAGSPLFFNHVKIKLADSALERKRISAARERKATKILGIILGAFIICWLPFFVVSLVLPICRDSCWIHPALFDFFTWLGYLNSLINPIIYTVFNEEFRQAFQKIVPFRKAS
Experiment: IC50 at the 5-HT1D receptor
Type: binding
pIC50: −log10 of the molar value.
resultType: pIC50

| smilesRepr | resultType | value |
| --- | --- | --- |
| O=C(c1nccc2ccccc12)N1CCN(CCc2ccc(F)cc2)CC1 | pIC50 | < 6.00 |

* * *

Target: 5-HT2C receptor (Homo sapiens)
Sequence (P28335 33-458): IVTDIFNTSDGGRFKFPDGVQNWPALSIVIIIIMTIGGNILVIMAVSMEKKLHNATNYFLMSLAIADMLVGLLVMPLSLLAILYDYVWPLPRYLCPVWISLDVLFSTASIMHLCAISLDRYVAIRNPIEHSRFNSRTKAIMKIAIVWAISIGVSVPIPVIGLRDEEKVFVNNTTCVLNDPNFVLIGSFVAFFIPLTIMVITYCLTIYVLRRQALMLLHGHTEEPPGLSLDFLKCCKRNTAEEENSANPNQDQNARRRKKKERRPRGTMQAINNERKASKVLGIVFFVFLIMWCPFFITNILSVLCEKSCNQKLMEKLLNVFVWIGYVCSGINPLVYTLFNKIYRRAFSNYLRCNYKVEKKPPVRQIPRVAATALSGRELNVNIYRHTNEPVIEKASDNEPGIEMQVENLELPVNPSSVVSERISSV
pIC50: −log10 of the molar value.
resultType: pIC50

| smilesRepr | value |
| --- | --- |
| O=C(c1nccc2ccccc12)N1CCN(CCc2ccc(F)cc2)CC1 | < 6.00 |

* * *

Target: 5-HT1B receptor (Homo sapiens, UniProt P28222)
Sequence (P28222 whole entry): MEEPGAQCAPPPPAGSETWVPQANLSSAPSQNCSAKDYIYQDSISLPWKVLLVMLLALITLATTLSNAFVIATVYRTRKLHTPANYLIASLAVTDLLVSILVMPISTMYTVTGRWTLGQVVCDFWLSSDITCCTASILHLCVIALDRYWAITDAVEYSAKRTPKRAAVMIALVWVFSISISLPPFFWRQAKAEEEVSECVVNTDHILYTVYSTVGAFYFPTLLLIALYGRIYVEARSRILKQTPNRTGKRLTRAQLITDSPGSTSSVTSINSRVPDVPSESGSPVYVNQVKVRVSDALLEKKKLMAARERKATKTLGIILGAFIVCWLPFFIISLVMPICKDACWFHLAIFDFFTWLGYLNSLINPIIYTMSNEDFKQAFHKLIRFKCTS
resultType: IC50

| compound | value |
| --- | --- |
| O=C(c1nccc2ccccc12)N1CCN(CCc2ccc(F)cc2)CC1 [Example 1] | > 1000 nM |

* * *

Target: 5-HT1A receptor (Homo sapiens)
Sequence (P08908 whole entry): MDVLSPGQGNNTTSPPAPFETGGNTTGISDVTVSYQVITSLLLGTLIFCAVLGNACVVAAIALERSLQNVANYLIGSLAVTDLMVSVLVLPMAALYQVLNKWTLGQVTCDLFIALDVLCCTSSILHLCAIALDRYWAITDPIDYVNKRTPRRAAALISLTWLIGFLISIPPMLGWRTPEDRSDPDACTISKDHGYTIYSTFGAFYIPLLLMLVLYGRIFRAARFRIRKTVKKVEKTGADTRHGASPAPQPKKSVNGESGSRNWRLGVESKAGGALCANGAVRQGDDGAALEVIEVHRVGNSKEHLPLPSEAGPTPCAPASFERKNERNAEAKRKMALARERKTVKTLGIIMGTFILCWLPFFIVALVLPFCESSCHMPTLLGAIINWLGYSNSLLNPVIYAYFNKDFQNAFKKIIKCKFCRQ
pIC50: −log10 of the molar value.
resultType: pIC50

| smilesRepr | value |
| --- | --- |
| O=C(c1nccc2ccccc12)N1CCN(CCc2ccc(F)cc2)CC1 | < 6.00 |
